assay: amyloid nucleation score (Sup35N fusion, yeast selection) (log enrichment); library NNK2; higher = more nucleation; inactive = no reads after selection;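 further: zero at mode of non-aggregating sequences after 7 days selection at 30°C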
Field: amyloid nucleation score. Provide a value for each of the substances that follow.
// no unit string in output, number only

Record request: amyloid nucleation score value, item `QIVIWVRLYFNVFSRSRSRV`
1.05

Record: `IVVQWMYVF`
-0.382

Also, `WNYITVDISQLNLPGVAMGW` please.
3.45

Input `GLCKTVSWRNSSLEKDLFGR`
-0.813

Field entry: `VYFDNGISK`
-1.6

Try this substance too: `CPFVATGDP`
-0.849

Next substance up: `VSSLMMVGNRFLIISWTESV`
2.55

----------
assay: amyloid nucleation score (Sup35N fusion, yeast selection) (log enrichment); library NNK1; higher = more nucleation; inactive = no reads after selection
MEASURE NAME: amyloid nucleation score
// return just the number, without any unit appended

Endpoint output: amyloid nucleation score of `ADYVKMNRDFRVGTTYDMST` . Value?
1.18

Query `ILADIVDATWNFKSSISFLG` next
1.74

Could you do the same for `IRLRMWDHRWSTKGGSHTFL` , please?
-1.36

Same thing, different substance: `KLIVVSLIRDMQSNV`
-0.059

Next: `YWSFGGWVAQRVCMESVFVK`
-2.27

Lookup `TNFLKSFHV`
-1.95

Now this one: `VRLFLCFARSMDVRYFILVG`
0.459

Proceed to `MKSALKALTEHSPQSYDWCR`
-0.4

Queued: `IFMSRWG`
2.78

Follow-up entry: `LWVNTDSSLECHRWLRVIV`
1.2

Do the same for `NVPCRVLRFGHLSDIGIDCQ` please
0.705

Lookup `CLSYIVVALVRCTDIYYP`
0.763

Next substance: `YTRFVKGYTRNRFSRDTSAV`
-0.084

# iterate: `SHKGNPCRKIC`
-0.392

Now this one: `FCLNGRYECGSRMECEMVRE`
-0.741

Proceed to `WWATWRLLCIDNTACWADRW`
-0.177

// repeat for `PYFLGGRA` and report
-0.809

Repeat with `CLFLDWMPM`
0.548

Lookup `IRVFLLSCQTEKLGSVGVRS`
-0.007

What about `GSGVGKLCGLCSPG` ?
0.274

Further, for `NGEIVYASWTCDPSIGRRGK` ?
0.207

Same lookup for `NWVAYIPKDNVWVVRGKLKG` , please.
0.753

And what about the substance `VGIGLSFQTEQSVCTDLLYS` ?
-0.203

Note, next up: `LSVICMFTY`
4.74

Now the same for `YFCAMGNHVLVS`
-0.389

----------
assay: amyloid nucleation score (Sup35N fusion, yeast selection) (log enrichment); library NNK1; higher = more nucleation; inactive = no reads after selection
Everything with amyloid nucleation score lower than 0.05 is -1; everything else, including exactly 0.05, is 1.

Check the entry `DNMYIFEN` : does amyloid nucleation score equal or exceed 0.05?
-1

Then what about the sequence `TRLHRSQYSLSQSYNRTRKM` ?
1

Ok, now `TSSCLVYL`
-1

Follow-up entry: `SINVVLAINGTAHCNFSASL`
1

Moving on to `LYKKICKALSYIMDLTRVLP`
-1

Same thing, different sequence: `MLTNVSNICYWNDVVGDSLA`
1

Queued: `RYISTLYEMNLKYVNVVQFH`
1

----------
assay: amyloid nucleation score (Sup35N fusion, yeast selection) (log enrichment); library NNK3; higher = more nucleation; inactive = no reads after selection
MEASURE NAME: amyloid nucleation score

> print(dat)
        sequence.record  value.observed
1  SFITTCIYRNVSVFCDHSAE        inactive
2  LVTFFSGRYGHWWLDNCWRQ        inactive
3  HFCKRLENIVYLRIFIFYLN        inactive
4      DCKLVDIDSLLVTFDR        inactive
5       LSNPTSRVLSYRTNM        inactive

Form field: reported amyloid nucleation score of `TNVSPLTPNT`
inactive

Now consider `KRDEVVKFLLDGVGASGYNA` .
inactive

Repeat with `LCYAWRSGSNTYMHMMNWSM`
inactive

Now this one: `ELALISHTLGSSATPNWFTV`
inactive

Now the same for `CVVNSGFNLSCMIVSQSVSL`
inactive

----------
assay: amyloid nucleation score (Sup35N fusion, yeast selection) (log enrichment); library NNK3; higher = more nucleation; inactive = no reads after selection
MEASURE NAME: amyloid nucleation score

The examples below pair each entry with its known result.
> print(dat)
        sequence.record  value.observed
1  PSYNCFTKFVADQTVTLRFS        inactive
2          TIEIGSLYTITM          -0.251
3  CWDEIHIMKAHIRSYGGSVS        inactive
4    MSKDFSRGVQLTDRCLLC        inactive
5  QSNFLFLDFANVYSHKQWCL            1.71

Kindly consider the entry below.
Entry under review: `SVNFSYASAIPHAQMIQVRV` . Reported amyloid nucleation score?
inactive

----------
experiment: amyloid nucleation score (Sup35N fusion, yeast selection) (log enrichment); library NNK1; higher = more nucleation; inactive = no reads after selection
MEASURE NAME: amyloid nucleation score
Quick one: just the number, no unit, thanks!

If you can, please state the reported amyloid nucleation score value of `NCCGSLETSSVSVVYLMWGW` .
5.92

Repeat with `GFRSCRCVQGRANVFPYSMS`
-0.103

Can you check `CQVVLISWTGSHKGNLEHNA` next?
1.08

Queued: `SYESSLNGRISFRNGERLLC`
0.115

Now consider `SLGCYCRVKIVWVCILGYTA` .
0.526

Likewise for `STFAAFSNTVYASCQYLLNG` ?
-1.14

Now this one: `MYVSDCCSCICMVVDTRSIF`
0.292

And for `LLIALFSW` ?
1.34

Next sequence: `VLKCHSGSCRIYTNDSYVAL`
0.387

Similarly, `CYSGCYRLCRVIVASCRCRG` ?
0.015

Further, for `SFVCCFRLPWMGGTKNPMHV` ?
3.55

What do you get for `REGNVSYYSFGL` ?
-1.48

Please give the result for `DEPLNTMRSYACWSSDSSHP` too.
0.139

Also check `LSDWWKTSMFGYPVYSVVAR`
0.62

Ok, now `SNSLTFYFSKCYTSCSNLLG`
6.08

----------
assay: amyloid nucleation score (Sup35N fusion, yeast selection) (log enrichment); library NNK2; higher = more nucleation; inactive = no reads after selection
MEASURE NAME: amyloid nucleation score

# annotated cases, reported amyloid nucleation score shown
> print(dat)
        sequence.record  value.observed
1  WYVDSLLWEILSALECCVFM        inactive
2  NLCRQVACTLLSLPSDTPRF            8.84
3  LSTRLGNVSHFWLWTRSCMG            1.04
4  VKIWDHKCSLRGYWVKWMIG            1.45
5             CRVRYTGGY           0.523

# lookup: amyloid nucleation score of `LLFQVLPKMTSAPPSGWSTP`
0.547

Moving on to the next sequence: `TTNSFINLVYMNMHK`
6.63

And what about the sequence `SIFLREDVVFSDLLRWFR` ?
5.57

And the next one, `SNYGTGDGCCVGV` ?
1.81

Also check `TVMNVDWFKDYLLTNFVCSD`
0.063

Follow-up item: `WHQVRPARV`
1.17

Same question for `VFLSRVFNSF` please.
-0.317

Likewise for `AGRLLGNVGNWRANEGAGGD` ?
-0.833

And the next one, `GLLAPLSSCLCVRDFVGLKA` ?
-0.187

Next record, please: `LMFWGCSGLRWLVVLSDNKA`
3.8

And what about the sequence `TKATRINEGLLNLYALFGGK` ?
0.974

How about this sequence: `LMFCTRFSLYTGSWFWSSVT`
1.57

----------
experiment: amyloid nucleation score (Sup35N fusion, yeast selection) (log enrichment); library NNK2; higher = more nucleation; inactive = no reads after selection
Output schema: class label derived from amyloid nucleation score. Mapping: one (below -0.4), two (-0.4 to below 0.6), three (0.6 or more)

Pick a category. Item: `QSMSNACFVMGTRCITKRAA`
three

Another sequence: `IMNSQVVGSFHA`
two

Quick one: `STVELEQYGSSARADYLVWR`
two

What about `TLGVSRNLALSTEARTLRPY` ?
two

Let us now turn to `CNMIYNDKSLPKW`
two

// same read-out, input: `NCRLKLPSP`
three

Now consider `RGSYMVPWHVERIIGNSRVS` and answer again.
one

And then `RNSPVSLDVVSI` , what is it?
two

And then `VWRPRTFLLIHYVVKDKRTP` , what is it?
one
